- Tgt: HIV-1 protease (Human immunodeficiency virus type 1 group M subtype B, UniProt P04585)
- Construct: The protease (or proteinase), consisting of only 99 amino acids, is among the smallest enzymes known
- Test description: In vitro HIV protease inhibitory assay (HIV Protease FITC Assay)
- Format: biochemical
- Measurement setup: HIV-1 Dose 100.000 uM; read-out: HIV-1 Protease % Inhib
Endpoint name: inhibition at 100 µM (%)
Dear colleague, please return just the value in %, with no unit written.

Q: Returns the measured inhibition at 100 µM for the input compound. Input: CCC(CC1OCCO1)c1cc(O)c(C(c2ccccc2)C2CC2)c(=O)o1 (stereo not shown) [Example 60]
Ans: 123

Q: Try this compound too: Cc1cc(O)c(C(c2ccccc2)C2CC2)c(=O)o1 (stereo not shown) [Example 20]
Ans: 60.6

Q: Subsequent entry: O=c1oc(C(Cc2ccccc2)Cc2ccccc2)cc(O)c1C(c1ccccc1)C1CC1 (stereo not shown) [Example 23]
Ans: 87

Q: What do you get for Cc1nc(CCc2cc(O)c(C(c3ccccc3)C3CC3)c(=O)o2)cs1 (stereo not shown) [Example 50] ?
Ans: 106

Q: Quick one: O=c1oc(CCCc2ccccc2)cc(O)c1C(c1ccccc1)C1CC1 (stereo not shown) [Example 21]
Ans: 110

Q: Try the compound O=c1oc(C(Cc2ccccc2)Cc2ccccn2)cc(O)c1C(c1ccccc1)C1CC1 (stereo not shown) [Example 46]
Ans: 115

Q: Repeat with O=c1oc(CCc2ccc3ccccc3n2)cc(O)c1C(c1ccccc1)C1CC1 (stereo not shown) [Example 51]
Ans: 83.7

Q: Another compound: CCC(Cc1c(C)noc1C)c1cc(O)c(C(c2ccccc2)C2CC2)c(=O)o1 (stereo not shown) [Example 54]
Ans: 100

Q: Likewise for O=c1oc(CC(O)c2ccc(F)cc2)cc(O)c1C(c1ccccc1)C1CC1 (stereo not shown) [Example 148] ?
Ans: 130

Q: Another: Cc1cc(O)c(CC=Cc2ccccc2)c(=O)o1 [Example 122]
Ans: 26

Q: Further, for Cc1ccc(C(O)Cc2cc(O)c(C(c3ccccc3)C3CC3)c(=O)o2)cc1 (stereo not shown) [Example 147] ?
Ans: 114

Q: Try this compound too: O=c1oc(CCCC2CCCCC2)cc(O)c1C(c1ccccc1)C1CC1 (stereo not shown) [Example 94]
Ans: 52.4

Q: Now give it for O=c1oc(CCc2ccccc2)cc(O)c1C(C1CC1)C1CC1 [Example 82] too.
Ans: 106

Q: Same question, CCCC1(c2ccccc2)CC(O)=C(C(CC)c2cccc(O)c2)C(=O)O1 (stereo not shown) [Example 30] this time
Ans: 75.7

Q: Same read-out for CCC(CC)c1cc(O)c(C(CC)c2ccccc2)c(=O)o1 (stereo not shown) [Example 14] ?
Ans: 105

Q: How about this compound: CCC(Cc1ccc(Br)cc1)c1cc(O)c(C(c2ccccc2)C2CC2)c(=O)o1 (stereo not shown) [Example 158]
Ans: 115

Q: Another: O=c1oc(CC(O)c2ccc(Cl)cc2)cc(O)c1C(c1ccccc1)C1CC1 (stereo not shown) [Example 149]
Ans: 117

Q: How about this compound: CCC(CC1CC1)c1cc(O)c(C(c2ccccc2)C2CC2)c(=O)o1 (stereo not shown) [Example 90]
Ans: 95.9

Q: // next record CCC(c1ccccc1)c1c(O)cc(C(Cc2ccccc2)Cc2ccccc2)oc1=O (stereo not shown) [Example 101]
Ans: 97.9
